# credit: the M2OR odorant receptor database

- TARGET OR SYSTEM: UniProt Q8VGX5
- Sequence (Q8VGX5 as listed by the source): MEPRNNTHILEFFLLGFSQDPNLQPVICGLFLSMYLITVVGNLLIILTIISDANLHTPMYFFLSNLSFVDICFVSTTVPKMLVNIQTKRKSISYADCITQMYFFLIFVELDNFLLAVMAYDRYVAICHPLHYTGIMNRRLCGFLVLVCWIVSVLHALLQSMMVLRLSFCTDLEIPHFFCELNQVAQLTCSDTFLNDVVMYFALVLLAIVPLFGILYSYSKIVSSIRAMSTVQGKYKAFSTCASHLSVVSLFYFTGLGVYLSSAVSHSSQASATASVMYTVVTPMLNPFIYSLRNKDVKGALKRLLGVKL
- MEASUREMENT SETUP: stereoisomer not certain
Your response should consist of one outcome taken from active, inactive

Record excerpt, results attached:
CCCCCCC(C=O)=Cc1ccccc1 : inactive
CCCCCOC(=O)CCC : inactive
CCCO : inactive
CCCCCC1=C(C)CCC1=O : active
CC(CC=O)CCCC(C)(C)O (centres undefined) : inactive

Task: Status in this test for CCCCCCCCCO ?
Result: inactive

Task: Check the results log: what was the call for C1CCOC1 ?
Result: inactive

Task: Kindly provide the recorded test outcome for the following molecule: COc1nccnc1C
Result: inactive

Task: Recorded test outcome, item CCCCCCCC(=O)[O-].[H+]
Result: inactive

* * *

- TARGET OR SYSTEM: OR6J1 (Homo sapiens) (UniProt Q8NGC5)
- Sequence (Q8NGC5 whole entry): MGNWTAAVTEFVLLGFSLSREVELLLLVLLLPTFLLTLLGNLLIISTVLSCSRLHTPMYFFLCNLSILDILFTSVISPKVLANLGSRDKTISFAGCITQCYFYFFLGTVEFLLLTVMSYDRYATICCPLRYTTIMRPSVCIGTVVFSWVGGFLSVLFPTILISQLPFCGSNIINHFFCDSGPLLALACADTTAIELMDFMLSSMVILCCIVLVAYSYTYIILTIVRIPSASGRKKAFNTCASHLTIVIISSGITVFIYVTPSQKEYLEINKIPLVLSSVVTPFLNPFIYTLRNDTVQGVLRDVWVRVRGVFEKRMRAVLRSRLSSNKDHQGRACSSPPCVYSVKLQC
- MEASUREMENT SETUP: stereoisomer not certain
EXPERIMENTAL READOUT: odorant receptor agonist call

Below are worked cases with known answers.
CC1=C(O)C(=O)OC1C (stereo unspecified) : inactive
CCC1OC(=O)C(O)=C1C (stereo unspecified) : inactive
CCC1OC(C)=C(O)C1=O (stereo unspecified) : inactive
CC1=C(O)C(=O)C(C)O1 (stereo unspecified) : inactive
CC1=NC(C)C(C)S1 (stereo unspecified) : inactive

Turning now to a further record.
Lab note: measured odorant receptor agonist call of Cc1cnc(C)c(C)n1 was inactive

* * *

- TARGET OR SYSTEM: Or10j5 (Mus musculus) (UniProt Q62007)
- Sequence (Q62007 whole entry): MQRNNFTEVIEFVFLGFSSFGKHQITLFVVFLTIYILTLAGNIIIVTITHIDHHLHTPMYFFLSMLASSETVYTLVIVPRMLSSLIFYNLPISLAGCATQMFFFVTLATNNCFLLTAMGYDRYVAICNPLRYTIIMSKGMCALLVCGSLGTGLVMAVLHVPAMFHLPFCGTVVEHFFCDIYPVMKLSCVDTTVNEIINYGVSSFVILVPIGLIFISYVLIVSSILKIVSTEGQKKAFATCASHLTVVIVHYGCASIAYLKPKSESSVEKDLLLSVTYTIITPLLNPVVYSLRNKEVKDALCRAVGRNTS
- MEASUREMENT SETUP: stereoisomer not certain
API: response.call in t (active), f (inactive)

Past entries and their recorded results:
CCCCC=O : f
O=C(O)CCCCBr : f
O=C(O)CCCCCCCCCBr : f
CCCCCCCCCO : f
O=C([O-])CCCCCCC(=O)[O-].[H+].[H+] : f

Task: Status in this test for O=C(O)CCCCCC(=O)O ?
Result: f

Task: Assay outcome for CCCCCCCO : what was it?
Result: f

Task: I would be grateful if you could indicate the recorded call for CCCCCCCCCC(=O)[O-].[H+] .
Result: f

* * *

- TARGET OR SYSTEM: OR52R1 (Homo sapiens) (UniProt Q8NGF1)
- Sequence (Q8NGF1 whole entry): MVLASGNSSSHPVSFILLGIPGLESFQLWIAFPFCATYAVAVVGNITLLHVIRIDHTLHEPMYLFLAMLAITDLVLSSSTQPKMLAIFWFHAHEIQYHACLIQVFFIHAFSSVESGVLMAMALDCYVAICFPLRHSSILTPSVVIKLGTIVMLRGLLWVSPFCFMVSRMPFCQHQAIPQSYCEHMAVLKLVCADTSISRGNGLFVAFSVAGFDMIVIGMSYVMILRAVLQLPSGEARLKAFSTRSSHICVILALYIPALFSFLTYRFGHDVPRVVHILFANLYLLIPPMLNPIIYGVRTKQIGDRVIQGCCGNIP
- MEASUREMENT SETUP: stereoisomer not certain
Respond using exactly one of the listed classes: 1 (active), 0 (inactive)

Example entries begin here.
CCCCCC1CCCC(=O)O1 (centres undefined) : 1
CCCC(S)CCOC(C)=O (centres undefined) : 0
CCC1OC(C)=C(O)C1=O (centres undefined) : 0
Cc1cnc(C)c(C)n1 : 0
CCCCCC(S)C(C)CO (centres undefined) : 0

Task: Just curious, what result did CCCCCCC=CCCC=O get here?
Result: 0

Task: Call for entry CC(=O)c1c(C)c([N+](=O)[O-])c(C(C)(C)C)c([N+](=O)[O-])c1C :
Result: 0

Task: In this assay, the call recorded for CC1CCCCCCCCCCCCC(=O)C1 (centres undefined) was what?
Result: 0

Task: Which outcome was entered for the molecule CC1=C(O)C(=O)OC1C (centres undefined) in this test?
Result: 0

* * *

- TARGET OR SYSTEM: UniProt L7N210
- Sequence (L7N210 as listed by the source): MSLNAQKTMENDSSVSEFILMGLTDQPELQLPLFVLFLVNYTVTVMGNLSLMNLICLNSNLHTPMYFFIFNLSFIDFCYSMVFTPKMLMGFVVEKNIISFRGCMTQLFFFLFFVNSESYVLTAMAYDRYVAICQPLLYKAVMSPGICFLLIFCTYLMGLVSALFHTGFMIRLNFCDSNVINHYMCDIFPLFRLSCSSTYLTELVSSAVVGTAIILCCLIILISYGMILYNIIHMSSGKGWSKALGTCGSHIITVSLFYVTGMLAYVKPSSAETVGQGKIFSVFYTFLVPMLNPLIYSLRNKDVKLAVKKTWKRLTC
- MEASUREMENT SETUP: stereoisomer not certain
Respond only with the outcome that fits, drawn from T = active, F = inactive

CCCCCCCCCCCO : F
O=C(O)CCCCCCCCC(=O)O : F
CCCCCOC(=O)CC : F
C=CC(=C)CCC=C(C)CCC=C(C)C : F
CCC(C)c1nccnc1OC (stereo unspecified) : F

Task: // outcome(item) with item = CCSCC
Result: F

Task: Check the results log: what was the call for Cc1ccc(OC(=O)C(C)C)cc1 ?
Result: F

Task: Identify the outcome logged in this assay for the molecule shown: CSSCc1ccco1
Result: F

Task: For this molecule, state the assay outcome: CC1CCC(C(C)C)C(=O)C1 (stereo unspecified)
Result: F

Task: What outcome does the record of this test show for CCCCCCC(C)=O ?
Result: F

Task: What call does the record list for CCCCCCCOC(=O)C(C)C ?
Result: F

Task: Short answer needed: outcome of this test for C=CC(=C)CCC=C(C)C ?
Result: F

Task: Each molecule tested received a call. Report the one for CCCCCCC(=O)[O-].[H+] .
Result: F
